Measured values drawn from patent US20250270180A1 for this set.

Answer each item with its documented Papp B→A at 2 h, 10 μM.
Experiment: Absorption & efflux: Caco-2 permeability
Details: human
The reply should contain only the number, in ×10⁻⁶ cm/s.

Bench note: what Papp B→A at 2 h, 10 μM did CNS(=O)(=O)Nc1cccc(Cc2c(CNCC#N)c3ccc(OC(=O)N(C)C)cc3oc2=O)c1F [Compound 13] show?
20

Bench note: what Papp B→A at 2 h, 10 μM did C#CCNCc1c(Cc2cccc(NS(=O)(=O)NC)c2F)c(=O)oc2cc(OC(=O)N(C)C)ccc12 [Compound 14] show?
26.1

Bench note: what Papp B→A at 2 h, 10 μM did CNS(=O)(=O)Nc1cccc(Cc2c(CNC3CC3)c3ccc(OC(=O)N(C)C)cc3oc2=O)c1F [Compound 11] show?
19.7

Bench note: what Papp B→A at 2 h, 10 μM did CNS(=O)(=O)Nc1cccc(Cc2c(CN3CCN(Cc4ccccc4)CC3)c3ccc(OC(=O)N(C)C)cc3oc2=O)c1F [Compound 16] show?
5.61

Bench note: what Papp B→A at 2 h, 10 μM did CNS(=O)(=O)Nc1cccc(Cc2c(CNc3ccn[nH]3)c3ccc(OC(=O)N(C)C)cc3oc2=O)c1F [Compound 12] show?
17.9

Bench note: what Papp B→A at 2 h, 10 μM did CNS(=O)(=O)Nc1cccc(Cc2c(CN3CCN(C)CC3)c3ccc(OC(=O)N(C)C)cc3oc2=O)c1F [Compound 15] show?
34.9

Bench note: what Papp B→A at 2 h, 10 μM did CNS(=O)(=O)Nc1cccc(Cc2c(CN(C)C)c3ccc(OC(=O)N(C)C)cc3oc2=O)c1F [Compound 9] show?
21

Bench note: what Papp B→A at 2 h, 10 μM did CNS(=O)(=O)Nc1cccc(Cc2c(CN3CCNCC3)c3ccc(OC(=O)N(C)C)cc3oc2=O)c1F [Compound 10] show?
3.8

* * *

Assay: Single dose PK profile (plasma and tumor) in Colon26 tumor bearing mice
Format: in vivo
Details: female, mouse, po, 100 mg/kg; plasma; 100 mpk p.o.
Answer each item with its documented AUC(0-t).
The reply should contain only the number, in ng·h/mL.

Bench note: what AUC(0-t) did CNS(=O)(=O)Nc1cccc(Cc2c(CN(C)C)c3ccc(OC(=O)N(C)C)cc3oc2=O)c1F show?
44500

Bench note: what AUC(0-t) did CNS(=O)(=O)Nc1cccc(Cc2c(CN3CCC3)c3ccc(OC(=O)N(C)C)cc3oc2=O)c1F show?
31100

* * *

Assay: Plasma stability, CD-1 mouse
Format: in vitro ADME
Details: 2 μM
measuredParameter: CD-1 Mouse (% Reamining @2 hour) (%)
The reply should contain only the number, in %.

Bench note: what CD-1 Mouse (% Reamining @2 hour) did CNS(=O)(=O)Nc1cccc(Cc2c(C)c3ccc(OC(=O)N(C)C)cc3oc2=O)c1F show?
56.5

Bench note: what CD-1 Mouse (% Reamining @2 hour) did CNS(=O)(=O)Nc1cccc(Cc2c(CN3CCN(C)CC3)c3ccc(OC(=O)N(C)C)cc3oc2=O)c1F show?
87.1

Bench note: what CD-1 Mouse (% Reamining @2 hour) did CC[C@H](C)C(=O)O[C@H]1C[C@@H](C)C=C2C=C[C@H](C)[C@H](CC[C@@H]3C[C@@H](O)CC(=O)O3)[C@H]21 show?
0.6

Bench note: what CD-1 Mouse (% Reamining @2 hour) did CNS(=O)(=O)Nc1cccc(Cc2c(CNc3ccn[nH]3)c3ccc(OC(=O)N(C)C)cc3oc2=O)c1F show?
86.6

Bench note: what CD-1 Mouse (% Reamining @2 hour) did CNS(=O)(=O)Nc1cccc(Cc2c(CNC3CC3)c3ccc(OC(=O)N(C)C)cc3oc2=O)c1F show?
81.4

Bench note: what CD-1 Mouse (% Reamining @2 hour) did CC(C)[N+](C)(CCOC(=O)C1c2ccccc2Oc2ccccc21)C(C)C show?
27.1
